- System: NCI-H196 SCLC complex tumor spheroid viability
- assay_summary: Anticancer human tumor NCI-H196 cell line growth inhibition;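 also: spheroids exposed to compounds for 7 days before readout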;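 as to viability, T/C: 100% = DMSO vehicle control wells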
- assay_conditions: second compound 0.0949 µM; first compound 0.3 µM; stronger effect = lower value
experimental_endpoint: viability, T/C (%)

- CNCc1ccc(-c2cc(-c3nc(-c4ccc(S(=O)(=O)C(C)C)cc4)cnc3N)on2)cc1 + CC[C@@]1(O)C(=O)OCc2c1cc1n(c2=O)Cc2cc3c(CN(C)C)c(O)ccc3nc2-1: 88.7
- Cn1ncnc1[C@H]1c2n[nH]c(=O)c3cc(F)cc(c23)N[C@@H]1c1ccc(F)cc1 + CC[C@@]1(O)C(=O)OCc2c1cc1n(c2=O)Cc2cc3c(CN(C)C)c(O)ccc3nc2-1: 110
- Cc1sc2c(c1C)C(c1ccc(Cl)cc1)=NC(CC(=O)Nc1ccc(O)cc1)c1nnc(C)n1-2 (centres undefined) + CC[C@@]1(O)C(=O)OCc2c1cc1n(c2=O)Cc2cc3c(CN(C)C)c(O)ccc3nc2-1: 67.4
- O=C(c1cc(Cc2n[nH]c(=O)c3ccccc23)ccc1F)N1CCN(C(=O)C2CC2)CC1 + CC[C@@]1(O)C(=O)OCc2c1cc1n(c2=O)Cc2cc3c(CN(C)C)c(O)ccc3nc2-1: 107

###

Reported viability, T/C by item:
- System: NCI-H196 SCLC complex tumor spheroid viability
- assay_summary: Anticancer human tumor NCI-H196 cell line growth inhibition;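 also: spheroids exposed to compounds for 7 days before readout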;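 as to viability, T/C: 100% = DMSO vehicle control wells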
- assay_conditions: second compound 0.0949 µM; first compound 3 µM; stronger effect = lower value
experimental_endpoint: viability, T/C (%)

* Cn1ncnc1[C@H]1c2n[nH]c(=O)c3cc(F)cc(c23)N[C@@H]1c1ccc(F)cc1 + CC[C@@]1(O)C(=O)OCc2c1cc1n(c2=O)Cc2cc3c(CN(C)C)c(O)ccc3nc2-1 | 96.8
* CNCc1ccc(-c2cc(-c3nc(-c4ccc(S(=O)(=O)C(C)C)cc4)cnc3N)on2)cc1 + CC[C@@]1(O)C(=O)OCc2c1cc1n(c2=O)Cc2cc3c(CN(C)C)c(O)ccc3nc2-1 | 75.1
* O=C(c1cc(Cc2n[nH]c(=O)c3ccccc23)ccc1F)N1CCN(C(=O)C2CC2)CC1 + CC[C@@]1(O)C(=O)OCc2c1cc1n(c2=O)Cc2cc3c(CN(C)C)c(O)ccc3nc2-1 | 99.6
* Cc1sc2c(c1C)C(c1ccc(Cl)cc1)=NC(CC(=O)Nc1ccc(O)cc1)c1nnc(C)n1-2 (centres undefined) + CC[C@@]1(O)C(=O)OCc2c1cc1n(c2=O)Cc2cc3c(CN(C)C)c(O)ccc3nc2-1 | 32.3

###

- System: NCI-H196 SCLC complex tumor spheroid viability
- assay_summary: Anticancer human tumor NCI-H196 cell line growth inhibition;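 also: spheroids exposed to compounds for 7 days before readout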;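 as to viability, T/C: 100% = DMSO vehicle control wells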
- assay_conditions: second compound 0.003 µM; first compound 0.00949 µM; stronger effect = lower value
Reported viability, T/C by item:
experimental_endpoint: viability, T/C (%)

- Cn1ncnc1[C@H]1c2n[nH]c(=O)c3cc(F)cc(c23)N[C@@H]1c1ccc(F)cc1 + COc1cc2c(cc1O)CCNC21CSC2c3c(OC(C)=O)c(C)c4c(c3C(COC1=O)N1C(O)C3Cc5cc(C)c(OC)c(O)c5C(C21)N3C)OCO4: 6.21
- Cc1sc2c(c1C)C(c1ccc(Cl)cc1)=NC(CC(=O)Nc1ccc(O)cc1)c1nnc(C)n1-2 (stereo unspecified) + CC[C@@]1(O)C(=O)OCc2c1cc1n(c2=O)Cc2cc3c(CN(C)C)c(O)ccc3nc2-1: 98.8
- CNCc1ccc(-c2cc(-c3nc(-c4ccc(S(=O)(=O)C(C)C)cc4)cnc3N)on2)cc1 + CC[C@@]1(O)C(=O)OCc2c1cc1n(c2=O)Cc2cc3c(CN(C)C)c(O)ccc3nc2-1: 101
- Cn1ncnc1[C@H]1c2n[nH]c(=O)c3cc(F)cc(c23)N[C@@H]1c1ccc(F)cc1 + CC[C@@]1(O)C(=O)OCc2c1cc1n(c2=O)Cc2cc3c(CN(C)C)c(O)ccc3nc2-1: 97.6
- Cc1sc2c(c1C)C(c1ccc(Cl)cc1)=NC(CC(=O)Nc1ccc(O)cc1)c1nnc(C)n1-2 (stereo unspecified) + COc1cc2c(cc1O)CCNC21CSC2c3c(OC(C)=O)c(C)c4c(c3C(COC1=O)N1C(O)C3Cc5cc(C)c(OC)c(O)c5C(C21)N3C)OCO4: 6.44
- CNCc1ccc(-c2cc(-c3nc(-c4ccc(S(=O)(=O)C(C)C)cc4)cnc3N)on2)cc1 + COc1cc2c(cc1O)CCNC21CSC2c3c(OC(C)=O)c(C)c4c(c3C(COC1=O)N1C(O)C3Cc5cc(C)c(OC)c(O)c5C(C21)N3C)OCO4: 9.83

###

Reported viability, T/C by item:
- System: NCI-H196 SCLC complex tumor spheroid viability
- assay_summary: Anticancer human tumor NCI-H196 cell line growth inhibition;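 also: spheroids exposed to compounds for 7 days before readout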;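 as to viability, T/C: 100% = DMSO vehicle control wells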
- assay_conditions: second compound 30 pM; first compound 0.1 µM; stronger effect = lower value
experimental_endpoint: viability, T/C (%)

* CC1COCCN1c1cc(-c2ccnn2C)c2ccnc(-c3ccn[nH]3)c2n1 (stereo unspecified) + COc1cc2c(cc1O)CCNC21CSC2c3c(OC(C)=O)c(C)c4c(c3C(COC1=O)N1C(O)C3Cc5cc(C)c(OC)c(O)c5C(C21)N3C)OCO4 | 74.5
* COc1ccc([C@@H](O)c2cc(-c3ncnc4cc(N5CCOCC5)ccc34)c(F)cc2Cl)nn1 + COc1cc2c(cc1O)CCNC21CSC2c3c(OC(C)=O)c(C)c4c(c3C(COC1=O)N1C(O)C3Cc5cc(C)c(OC)c(O)c5C(C21)N3C)OCO4 | 94.9
* Cc1cc(C)c(CNC(=O)c2cc(-c3ccc(CN4CCOCC4)cc3)cc3c2cnn3C2CCCC2)c(=O)[nH]1 + COc1cc2c(cc1O)CCNC21CSC2c3c(OC(C)=O)c(C)c4c(c3C(COC1=O)N1C(O)C3Cc5cc(C)c(OC)c(O)c5C(C21)N3C)OCO4 | 104
* [2H]c1nc(C)nc([2H])c1-c1cc(NC[C@@H](C)c2cccc3c(C(=O)NC)ccnc23)ncn1 + COc1cc2c(cc1O)CCNC21CSC2c3c(OC(C)=O)c(C)c4c(c3C(COC1=O)N1C(O)C3Cc5cc(C)c(OC)c(O)c5C(C21)N3C)OCO4 | 102
* CC(C)n1c(=O)n(C)c2cnc3cc(F)c(-c4ccc(OCCCN5CCCCC5)nc4)cc3c21 + COc1cc2c(cc1O)CCNC21CSC2c3c(OC(C)=O)c(C)c4c(c3C(COC1=O)N1C(O)C3Cc5cc(C)c(OC)c(O)c5C(C21)N3C)OCO4 | 106
* COc1cc(C)[nH]c(=O)c1CN1CCc2c(Cl)cc(C(OC)C3COC3)c(Cl)c2C1=O (stereo unspecified) + COc1cc2c(cc1O)CCNC21CSC2c3c(OC(C)=O)c(C)c4c(c3C(COC1=O)N1C(O)C3Cc5cc(C)c(OC)c(O)c5C(C21)N3C)OCO4 | 101

###

- Tested on: NCI-H196 SCLC complex tumor spheroid viability
- assay_summary: Anticancer human tumor NCI-H196 cell line growth inhibition;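 also: spheroids exposed to compounds for 7 days before readout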;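 as to viability, T/C: 100% = DMSO vehicle control wells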
- assay_conditions: second compound 0.03 µM; first compound 0.316 µM; stronger effect = lower value
Reported viability, T/C by item:
experimental_endpoint: viability, T/C (%)

• [2H]c1nc(C)nc([2H])c1-c1cc(NC[C@@H](C)c2cccc3c(C(=O)NC)ccnc23)ncn1 + CC[C@@]1(O)C(=O)OCc2c1cc1n(c2=O)Cc2cc3c(CN(C)C)c(O)ccc3nc2-1 = 95.4
• Cc1cc(C)c(CNC(=O)c2cc(-c3ccc(CN4CCOCC4)cc3)cc3c2cnn3C2CCCC2)c(=O)[nH]1 + CC[C@@]1(O)C(=O)OCc2c1cc1n(c2=O)Cc2cc3c(CN(C)C)c(O)ccc3nc2-1 = 98.4
• COc1ccc([C@@H](O)c2cc(-c3ncnc4cc(N5CCOCC5)ccc34)c(F)cc2Cl)nn1 + CC[C@@]1(O)C(=O)OCc2c1cc1n(c2=O)Cc2cc3c(CN(C)C)c(O)ccc3nc2-1 = 88.1
• COc1cc(C)[nH]c(=O)c1CN1CCc2c(Cl)cc(C(OC)C3COC3)c(Cl)c2C1=O (stereo unspecified) + CC[C@@]1(O)C(=O)OCc2c1cc1n(c2=O)Cc2cc3c(CN(C)C)c(O)ccc3nc2-1 = 97.5
• CC(C)n1c(=O)n(C)c2cnc3cc(F)c(-c4ccc(OCCCN5CCCCC5)nc4)cc3c21 + CC[C@@]1(O)C(=O)OCc2c1cc1n(c2=O)Cc2cc3c(CN(C)C)c(O)ccc3nc2-1 = 104
• CC1COCCN1c1cc(-c2ccnn2C)c2ccnc(-c3ccn[nH]3)c2n1 (stereo unspecified) + CC[C@@]1(O)C(=O)OCc2c1cc1n(c2=O)Cc2cc3c(CN(C)C)c(O)ccc3nc2-1 = 60.9

###

- System: NCI-H196 SCLC complex tumor spheroid viability
- assay_summary: Anticancer human tumor NCI-H196 cell line growth inhibition;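 also: spheroids exposed to compounds for 7 days before readout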
- assay_conditions: curve of first compound; second compound 31.6 µM
experimental_endpoint: IC50

- O=C(c1cc(Cc2n[nH]c(=O)c3ccccc23)ccc1F)N1CCN(C(=O)C2CC2)CC1 + Cn1nnc2c(C(N)=O)ncn2c1=O: > 30 µM
- COc1cc(C)[nH]c(=O)c1CN1CCc2c(Cl)cc(C(OC)C3COC3)c(Cl)c2C1=O (stereo not drawn) + Cn1nnc2c(C(N)=O)ncn2c1=O: > 10 µM
- Cc1cc(C)c(CNC(=O)c2cc(-c3ccc(CN4CCOCC4)cc3)cc3c2cnn3C2CCCC2)c(=O)[nH]1 + Cn1nnc2c(C(N)=O)ncn2c1=O: > 10 µM
